# target_system: T1, EGF receptor (on A431 cells) (UniProt P00533 25-1210, limits assumed)
# T1 construct: whole, on cells; also called EGF receptors
# protocol_text: competition flow cytometry on A431 cells against mAb-108 (7.5 nM)
Consider the cut-off 2 x. If the recorded IC50 relative to wild type scFv is strictly smaller, the label is 1.0; if not, the label is 0.0.

Field: example entries. Status: answers known.
binder	qualitative_label
pAcF-scFv-108-(S131) (scFv, p-acetyl-phenylalanine (pAcF) in place of Ser131, S131 is the second serine of the GlySer linker; X stands for pAcF; also called Ser131pAcF; S131Am) scFv: QVQLQQSGAELMKPGASVKISCKATGYTFSSYWIEWVKQRPGHGLEWIGEILPGSKKTNYNEKFKGKATFTADTSSNTAYMQFSSLTSEDSAVYYCARYYYRNDDYGMDYWGQGTSVTVSSGGGGSGGGGXGGGGSGGGGSEIHMTQTTSSLSASLGDRVTISCSASQDIRNYLNWYQQKPDGTVKLLIYYTSTLHSGVPSRFSGSGSGTDYSLTISNLEPEDIATYYCQQYSKIPYTFTGGTKLEIKRADAAEQKLISEEDLNSAVDHHHHHH	1.0
scFv-108 His144pAcF (scFv, p-acetyl-phenylalanine (pAcF) in place of His144, X stands for pAcF) scFv: QVQLQQSGAELMKPGASVKISCKATGYTFSSYWIEWVKQRPGHGLEWIGEILPGSKKTNYNEKFKGKATFTADTSSNTAYMQFSSLTSEDSAVYYCARYYYRNDDYGMDYWGQGTSVTVSSGGGGSGGGGSGGGGSGGGGSEIXMTQTTSSLSASLGDRVTISCSASQDIRNYLNWYQQKPDGTVKLLIYYTSTLHSGVPSRFSGSGSGTDYSLTISNLEPEDIATYYCQQYSKIPYTFTGGTKLEIKRADAAEQKLISEEDLNSAVDHHHHHH	0.0
scFv-108 Ser259pAcF (scFv, p-acetyl-phenylalanine (pAcF) in place of Ser259, X stands for pAcF) scFv: QVQLQQSGAELMKPGASVKISCKATGYTFSSYWIEWVKQRPGHGLEWIGEILPGSKKTNYNEKFKGKATFTADTSSNTAYMQFSSLTSEDSAVYYCARYYYRNDDYGMDYWGQGTSVTVSSGGGGSGGGGSGGGGSGGGGSEIHMTQTTSSLSASLGDRVTISCSASQDIRNYLNWYQQKPDGTVKLLIYYTSTLHSGVPSRFSGSGSGTDYSLTISNLEPEDIATYYCQQYSKIPYTFTGGTKLEIKRADAAEQKLIXEEDLNSAVDHHHHHH	1.0
pAcF-scFv-108-(S136) (scFv, p-acetyl-phenylalanine (pAcF) in place of Ser136, X stands for pAcF; also called Ser136pAcF; pAcF-scFv-(S136)) scFv: QVQLQQSGAELMKPGASVKISCKATGYTFSSYWIEWVKQRPGHGLEWIGEILPGSKKTNYNEKFKGKATFTADTSSNTAYMQFSSLTSEDSAVYYCARYYYRNDDYGMDYWGQGTSVTVSSGGGGSGGGGSGGGGXGGGGSEIHMTQTTSSLSASLGDRVTISCSASQDIRNYLNWYQQKPDGTVKLLIYYTSTLHSGVPSRFSGSGSGTDYSLTISNLEPEDIATYYCQQYSKIPYTFTGGTKLEIKRADAAEQKLISEEDLNSAVDHHHHHH	1.0

Lab note: IC50 relative to wild type scFv threshold 2 x. Does this binder come in strictly under it? pAcF-scFv-108-(L156) (scFv, p-acetyl-phenylalanine (pAcF) in place of Leu156, L156 lies in the VL chain; X stands for pAcF; also called Leu156pAcF) scFv: QVQLQQSGAELMKPGASVKISCKATGYTFSSYWIEWVKQRPGHGLEWIGEILPGSKKTNYNEKFKGKATFTADTSSNTAYMQFSSLTSEDSAVYYCARYYYRNDDYGMDYWGQGTSVTVSSGGGGSGGGGSGGGGSGGGGSEIHMTQTTSSLSASXGDRVTISCSASQDIRNYLNWYQQKPDGTVKLLIYYTSTLHSGVPSRFSGSGSGTDYSLTISNLEPEDIATYYCQQYSKIPYTFTGGTKLEIKRADAAEQKLISEEDLNSAVDHHHHHH
1.0
